# ASSAY_SYSTEM: T1, B-cat-Halo (beta-catenin HaloTag Nano-BRET construct) (UniProt P35222 1-781)
# T1 sequence (looked up): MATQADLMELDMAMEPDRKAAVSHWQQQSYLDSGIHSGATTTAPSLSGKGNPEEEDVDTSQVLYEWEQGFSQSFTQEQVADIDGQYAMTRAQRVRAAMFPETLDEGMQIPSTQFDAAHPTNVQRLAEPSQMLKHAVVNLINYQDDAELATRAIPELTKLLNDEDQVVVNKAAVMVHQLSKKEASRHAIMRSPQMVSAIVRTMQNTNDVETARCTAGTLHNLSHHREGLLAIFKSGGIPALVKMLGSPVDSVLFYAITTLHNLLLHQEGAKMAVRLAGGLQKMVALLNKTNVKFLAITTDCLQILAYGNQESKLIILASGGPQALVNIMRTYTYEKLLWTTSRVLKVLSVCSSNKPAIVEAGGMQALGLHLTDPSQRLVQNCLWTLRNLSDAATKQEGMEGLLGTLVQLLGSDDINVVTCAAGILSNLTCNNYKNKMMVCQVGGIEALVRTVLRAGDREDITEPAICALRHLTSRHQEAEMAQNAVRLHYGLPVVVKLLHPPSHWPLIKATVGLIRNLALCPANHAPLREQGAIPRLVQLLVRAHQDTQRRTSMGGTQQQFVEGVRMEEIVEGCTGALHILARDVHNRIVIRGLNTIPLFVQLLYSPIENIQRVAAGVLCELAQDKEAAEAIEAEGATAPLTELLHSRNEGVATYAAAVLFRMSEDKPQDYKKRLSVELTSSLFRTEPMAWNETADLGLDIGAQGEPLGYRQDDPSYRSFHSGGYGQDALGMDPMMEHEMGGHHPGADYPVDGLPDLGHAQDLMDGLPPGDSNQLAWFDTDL
# PROTOCOL_NOTES: cell-based or functional assay
Starred links: 1 amine or outer side, 2 acyl side, 3 side chain; linkers in the order of their positions; H or OH if unused. Positions of bridges follow the written chain, without caps; N, C: chain ends. Non-standard residues stand in square brackets, D forms with d. Primed or numbered codes have the meaning given here. PyrS2″ = (S)-3-amino-1-((pent-4-en-1-yloxy)carbonyl)pyrrolidine-3-carboxylic acid (stapling residue), C=CCCCOC(=O)N1CC[C@@](N[*:1])(C(=O)[*:2])C1; B5(4) = 2,2-bis(4-pentenyl)glycine = 2-amino-2-(pent-4-en-1-yl)hept-6-enoic acid (stitching residue), C=CCCCC(CCCC=C)(N[*:1])C(=O)[*:2]; (EtSSEt)AspE = (S)-2-amino-4-(2-(ethyldisulfaneyl)ethoxy)-4-oxobutanoic acid, CCSSCCOC(=O)C[C@H](N[*:1])C(=O)[*:2]; Bta = N[C@@H](Cc1csc2ccccc12)C(=O)O; αAllylPro = C=CC[C@@]1(C(=O)O)CCCN1; tBuAla = CC(C)(C)C[C@H](N)C(=O)O; 3Thi = N[C@@H](Cc1ccsc1)C(=O)O
Reported NanoBRET Abs IC50 is given for each of the following binders.
Give just the numeric value; µM need not be written.

[[record]]
binder = "Ac-[αAllylPro][(EtSSEt)AspE][tBuAla][B5(4)]DDAAFL[PyrS2″][3Thi][Bta]Q-NH2 (staple 1-4, 4-11) [I-1963]"
result_units = "µM"
endpoint_value = 25.6


--- query ---
Exercise: Hello, please tell me recorded NanoBRET Abs IC50 for this one: Ac-[αAllylPro]D[tBuAla][B5(4)]D[(EtSSEt)AspE]AAFL[PyrS2″][3Thi][Bta]Q-NH2 (staple 1-4, 4-11) [I-1965]
Key: 25.2
